Here's what we have: AC50 numbers for Histamine H1 receptor (Homo sapiens).

[[record]]
compound = "COc1cc2c(cc1OC)C(CCc1ccc(Cl)cc1)N(C)CC2 (stereo not drawn)"
test_result = "> 10 µM"


Read off the recorded AC50 for CC1=C(C)C(=O)C(C(CCCCCC(=O)O)c2ccccc2)=C(C)C1=O (stereo not drawn)
> 30 µM

Read off the recorded AC50 for CCC(C)C1(CC)C(=O)NC(=O)NC1=O (stereo not drawn)
> 30 µM

Read off the recorded AC50 for CC(C(=O)O)c1ccc2c(c1)[nH]c1ccc(Cl)cc12 (stereo not drawn)
> 10 µM

---

Listed here: items and their measured AC50.
# system: UniProt P21917
# Sequence (P21917 whole entry): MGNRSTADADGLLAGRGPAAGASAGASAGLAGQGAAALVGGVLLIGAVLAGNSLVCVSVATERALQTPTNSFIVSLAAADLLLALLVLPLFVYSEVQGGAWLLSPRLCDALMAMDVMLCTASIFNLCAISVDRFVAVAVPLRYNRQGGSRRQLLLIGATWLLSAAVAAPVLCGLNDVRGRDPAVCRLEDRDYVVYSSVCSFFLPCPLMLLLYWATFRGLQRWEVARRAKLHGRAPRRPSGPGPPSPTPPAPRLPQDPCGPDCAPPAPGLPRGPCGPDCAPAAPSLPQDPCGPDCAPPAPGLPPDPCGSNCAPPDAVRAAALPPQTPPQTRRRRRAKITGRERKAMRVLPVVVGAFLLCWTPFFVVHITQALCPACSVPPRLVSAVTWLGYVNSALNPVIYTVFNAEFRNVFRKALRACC

[[record]]
molecule = "COc1ccccc1OCCNCC(O)COc1cccc2[nH]c3ccccc3c12 (configuration not stated)"
reported_property = "AC50"
test_result = "0.0172 µM"

[[record]]
molecule = "C=CC[C@@H]1/C=C(\\C)C[C@H](C)C[C@H](OC)[C@H]2O[C@@](O)(C(=O)C(=O)N3CCCC[C@H]3C(=O)O[C@H](/C(C)=C/[C@@H]3CC[C@@H](O)[C@H](OC)C3)[C@H](C)[C@@H](O)CC1=O)[C@H](C)C[C@@H]2OC [TACROLIMUS ANHYDROUS]"
reported_property = "AC50"
test_result = "> 10 µM"

[[record]]
molecule = "Cn1c(=O)cc(N2CCC[C@@H](N)C2)n(Cc2ccccc2C#N)c1=O"
reported_property = "AC50"
test_result = "> 10 µM"

[[record]]
molecule = "Nc1ccc(S(=O)(=O)Nc2nccs2)cc1"
reported_property = "AC50"
test_result = "> 10 µM"

[[record]]
molecule = "CN1CCN(C2=Nc3ccccc3Oc3ccc(Cl)cc32)CC1"
reported_property = "AC50"
test_result = "0.0144 µM"


Shifting focus to the molecule that follows.
Read off the recorded AC50 for COc1cc2nc(N3CCN(C(=O)C4CCCO4)CC3)nc(N)c2cc1OC (configuration not stated)
> 10 µM

---

# system: Alpha-1A adrenergic receptor (Homo sapiens, UniProt P35348); further: assay procedure not described here
# Sequence (P35348 whole entry): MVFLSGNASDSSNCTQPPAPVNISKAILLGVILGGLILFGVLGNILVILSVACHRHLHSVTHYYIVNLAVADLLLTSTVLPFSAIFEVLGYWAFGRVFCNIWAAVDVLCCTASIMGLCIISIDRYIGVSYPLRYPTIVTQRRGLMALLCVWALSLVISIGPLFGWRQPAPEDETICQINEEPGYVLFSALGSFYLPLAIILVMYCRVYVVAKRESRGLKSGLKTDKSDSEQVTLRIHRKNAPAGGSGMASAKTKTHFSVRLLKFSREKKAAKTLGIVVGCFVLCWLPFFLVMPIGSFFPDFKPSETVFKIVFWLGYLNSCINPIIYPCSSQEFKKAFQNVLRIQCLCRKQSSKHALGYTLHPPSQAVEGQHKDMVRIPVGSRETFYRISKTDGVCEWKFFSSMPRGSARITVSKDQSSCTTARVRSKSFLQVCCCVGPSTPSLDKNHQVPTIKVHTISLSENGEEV
# Format: functional, cell-based
Listed here: items and their measured AC50.

[[record]]
compound = "c1ccc(C2(c3ccccc3)CC2C2=NCCN2)cc1 (stereo not given)"
system = "Alpha-1A adrenergic receptor (Homo sapiens, UniProt P35348)"
test_result = "> 30 µM"

[[record]]
compound = "CCc1nc(C(N)=O)c(Nc2ccc(N3CCC(N4CCN(C)CC4)CC3)c(OC)c2)nc1NC1CCOCC1"
system = "Alpha-1A adrenergic receptor (Homo sapiens, UniProt P35348)"
test_result = "> 0.3 µM"

[[record]]
compound = "CCn1cc(C(=O)O)c(=O)c2cc3c(cc21)OCO3"
system = "Alpha-1A adrenergic receptor (Homo sapiens, UniProt P35348)"
test_result = "> 30 µM"

[[record]]
compound = "Nc1ccc(C(=O)Oc2ccccc2)c(O)c1 [PHENYL AMINOSALICYLATE]"
system = "Alpha-1A adrenergic receptor (Homo sapiens, UniProt P35348)"
test_result = "23 µM"


Read off the recorded AC50 for "C[C@H]1O[C@@H](n2cc(F)c(=O)[nH]c2=O)[C@H](O)[C@@H]1O"
> 30 µM
